- target entity: Neutrophil elastase (Homo sapiens, UniProt P08246)
- Sequence (P08246 whole entry): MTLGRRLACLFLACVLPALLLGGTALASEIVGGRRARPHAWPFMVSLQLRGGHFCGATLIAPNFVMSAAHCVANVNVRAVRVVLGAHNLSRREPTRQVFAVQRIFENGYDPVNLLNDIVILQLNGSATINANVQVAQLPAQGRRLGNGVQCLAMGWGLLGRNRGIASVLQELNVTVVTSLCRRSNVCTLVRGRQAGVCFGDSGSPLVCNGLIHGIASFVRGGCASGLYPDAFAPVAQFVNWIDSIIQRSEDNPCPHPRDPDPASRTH
- protocol notes: Inhibition of human neutrophil elastase using MeOSuc-AAPV-pNA as substrate measured after 30 mins by spectrometric method
measurement kind: IC50 (µM)
Entry rule: numbers only, all in µM.

test smiles: O=c1cc(-c2ccc(O)c(O)c2)oc2cc(O)cc(O)c12
reported value: 12.7

// field: IC50; key: CC(C)=CCC/C(C)=C/Cc1c(O)cc2c(c1O)C(=O)C[C@@H](c1ccc(O)c(O)c1)O2 ; value = 22.8

Sure, the documented IC50 for COc1cc([C@@H]2CC(=O)c3c(cc(O)c(C/C=C(\C)CCC=C(C)C)c3O)O2)cc(OC)c1O is 71.3

Summary for this compound, O=c1cc(-c2ccc(O)cc2)oc2cc(O)cc(O)c12 : IC50 is 46.1

----------
- target entity: Neutrophil elastase (Homo sapiens)
- protocol notes: Inhibition of human neutrophil elastase using MeOSuc-AAPV-pNA as substrate measured after 30 mins by spectrometric method
pIC50: −log10 of the molar value.
Listed here are compounds together with their documented pIC50.

compound: CC(C)(O)CCCC1(C)CCc2c(cc3c(c2O)C(=O)C[C@@H](c2ccc(O)cc2)O3)O1 (stereo partly drawn)
target entity: Neutrophil elastase (Homo sapiens)
pIC50: < 4.00

compound: COc1ccc([C@@H]2CC(=O)c3c(cc4c(c3O)CCC(C)(CCCC(C)(C)O)O4)O2)cc1O (stereo partly drawn)
target entity: Neutrophil elastase (Homo sapiens)
pIC50: < 4.00

Turning now to a further record.
Briefly, pIC50 measured for COc1cc([C@@H]2CC(=O)c3c(cc4c(c3O)CCC(C)(CCCC(C)(C)O)O4)O2)cc(OC)c1O (stereo partly drawn) : < 4.00
